Target: T1, recombinant human CLL-1 extracellular domain (ECD, amino acids 65-265) fused to an N-terminal Flag (human, UniProt Q5QGZ9 65-265)
T1 construct: The construct and the K244Q SNP are stated for the immunogen; they are not written as a piece; also called huCLL-1-Flag; huCLL-1
T1 chain: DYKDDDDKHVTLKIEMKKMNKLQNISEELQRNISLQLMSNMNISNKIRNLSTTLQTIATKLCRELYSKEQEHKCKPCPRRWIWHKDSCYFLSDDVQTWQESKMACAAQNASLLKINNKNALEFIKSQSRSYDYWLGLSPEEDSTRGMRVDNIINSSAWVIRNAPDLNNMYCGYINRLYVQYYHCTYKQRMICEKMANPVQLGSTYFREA
Test: SPR (Biacore T200), IgG captured by anti-human Fc, human CLL-1 as analyte
Collected Kd values appear next to each entry.
Write it as a number; the unit nM goes unstated.

Incoming: Answer with the recorded Kd for the binder listed here: humanized 6E7 variant CDRs graft+K49(LC)+(A67, L69, V71, K73 (HC)) (antibody, V domains shown) VH: EVQLVQSGAEVKKPGASVKVSCKASGYSFTDYYMHWVRQAPGQGLEWIGRINPYNGAAFYSQNFKDRATLTVDKSTSTAYLELSSLRSEDTAVYYCAIERGADLEGYAMDYWGQGTLVTVSS VL: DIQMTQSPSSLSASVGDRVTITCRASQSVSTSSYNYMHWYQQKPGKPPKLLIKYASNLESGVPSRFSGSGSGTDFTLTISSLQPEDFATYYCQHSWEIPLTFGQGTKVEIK
Outgoing: 1.4

Incoming: Answer with the recorded Kd for the binder listed here: ch6E7 (antibody, V domains shown, chimeric version of m6E7, human IgG; also called chimeric 6E7; Chimeric 6E7) VH: QVQLQQSGPELVKPGASVKISCKASGYSFTDYYMHWVKQSHIKSLEWIGRINPYNGAAFYSQNFKDKASLTVDKSSSTAYMELHSLTSEDSAVYYCAIERGADLEGYAMDYWGQGTSVTVSS VL: DIVLTQSPSSLIVSLGQRATISCRASQSVSTSSYNYMHWYQQKPGQPPKLLLKYASNLESGVPARFSGSGSGTDFTLNIHPVEEEDTATYYCQHSWEIPLTFGAGTKLEIK
Outgoing: 0.959

Incoming: Answer with the recorded Kd for the binder listed here: humanized 21C9 variant CDRs graft+(F36 and S43(LC))+L69 (HC) (antibody, V domains shown) VH: EVQLVQSGAEVKKPGASVKVSCKASGYTFTDYYLDWVRQAPGQGLEWIGRVNPYNGGTIYNQKFKGRVTLTRDTSTSTAYLELSSLRSEDTAVYYCARDHYRYDPLLDYWGQGTLVTVSS VL: DIQMTQSPSSLSASVGDRVTITCKASQDVSTAVAWFQQKPGKSPKLLIYSPSYRYTGVPSRFSGSGSGTDFTLTISSLQPEDFATYYCQQLYSTPYTFGQGTKVEIK
Outgoing: 10.5

Incoming: Answer with the recorded Kd for the binder listed here: ch21C9 (antibody, V domains shown, chimeric version of m21C9, human IgG; also called chimeric 21C9; Chimeric 21C9) VH: EVQLQQSGPELVKPGASVKMSCKASGYTFTDYYLDWVKQSHGESFEWIGRVNPYNGGTIYNQKFKGKATLTVDKSSSTAYMDLNSLTSEDSAVYYCARDHYRYDPLLDYWGQGTTLTVSS VL: DIQMTQSHKFMSTSVGDRVSITCKASQDVSTAVAWFQQKPGQSPKLLIYSPSYRYTGVPDRFTGSGSGTDFTFTISSVQAEDLAVYYCQQLYSTPYTFGGGTKLEIK
Outgoing: 8.62
